The following compounds are listed with their measured TGI values.
assay_explanation: Growth inhibition of human RPMI8226 cells incubated for 48 hrs by sulforhodamine B assay
Assay type: functional
condition_summary: RPMI-8226, 48 h, read-out: pTGI (converted)
Write the number in µM without appending the unit.

C/C(=C\C(=O)O[C@H]1[C@@H]2[C@H](C)CC[C@H]2[C@]2(C)O[C@@]1(C(C)C)C[C@H]2NC(=O)CO)c1ccccc1	56.2
CC(C)[C@@]12C[C@@H](NC(=O)CO)[C@@](C)(O1)[C@@H]1CC[C@@H](C)[C@H]1[C@@H]2OC(=O)/C=C/c1ccccc1	42.7

Query compound follows.
Identify measured TGI corresponding to CC(C)[C@@]12C[C@@H](NC(=O)CO)[C@@](C)(O1)[C@@H]1CC[C@@H](C)[C@H]1[C@@H]2OC(=O)c1ccc2ccccc2c1
35.5

---

Measured growth at 10 µM of individual entries
assay_explanation: Growth inhibition of human HCT15 cells assessed as cell growth at 10 uM incubated for 48 hrs by sulforhodamine B assay relative to control
Assay type: functional
condition_summary: HCT-15, 48 h, read-out: Activity
# number only, unit % dropped from output

Worked set:
CC(C)[C@@]12C[C@@H](NC(=O)CF)[C@@](C)(O1)[C@@H]1CC[C@@H](C)[C@H]1[C@@H]2OC(=O)/C=C/c1ccccc1	103
CC(C)[C@@]12C[C@@H](NC(=O)CO)[C@@](C)(O1)[C@@H]1CC[C@@H](C)[C@H]1[C@@H]2OC(=O)c1ccc2ccccc2c1	90.8
CC(C)[C@@]12C[C@@H](NC(=O)CO)[C@@](C)(O1)[C@@H]1CC[C@@H](C)[C@H]1[C@@H]2OC(=O)/C=C/c1ccccc1	108
CC(C)[C@@]12C[C@@H](NC(=O)CO)[C@@](C)(O1)[C@@H]1CC[C@@H](C)[C@H]1[C@@H]2OC(=O)/C=C/C1CCCCC1	102

# next compound below
Please indicate growth at 10 µM recorded for C/C(=C\C(=O)O[C@H]1[C@@H]2[C@H](C)CC[C@H]2[C@]2(C)O[C@@]1(C(C)C)C[C@H]2NC(=O)CO)c1ccccc1
100

---

assay_explanation: Growth inhibition of human SW620 cells incubated for 48 hrs by sulforhodamine B assay
Assay type: functional
condition_summary: SW-620, 48 h, read-out: pTGI (converted)
Entries and their TGI

Some solved cases for reference:
CC(C)[C@@]12C[C@@H](NC(=O)CO)[C@@](C)(O1)[C@@H]1CC[C@@H](C)[C@H]1[C@@H]2OC(=O)/C=C/C1CCCCC1	> 44.7 µM
CC(C)[C@@]12C[C@@H](NC(=O)CO)[C@@](C)(O1)[C@@H]1CC[C@@H](C)[C@H]1[C@@H]2OC(=O)/C=C/c1ccccc1	> 50.1 µM
C/C(=C\C(=O)O[C@H]1[C@@H]2[C@H](C)CC[C@H]2[C@]2(C)O[C@@]1(C(C)C)C[C@H]2NC(=O)CO)c1ccccc1	> 100 µM

Identify the reported TGI for the following entry. CC(C)[C@@]12C[C@@H](NC(=O)CO)[C@@](C)(O1)[C@@H]1CC[C@@H](C)[C@H]1[C@@H]2OC(=O)c1ccc2ccccc2c1
34.7 µM

---

// LC50 lookup, one value per entry
Tested on: A498
assay_explanation: Growth inhibition of human A498 cells incubated for 48 hrs by sulforhodamine B assay
Assay type: functional
condition_summary: A498, 48 h
# unit: µM | format: bare number

Give reported LC50 value for CC(C)[C@@]12C[C@@H](NC(=O)CO)[C@@](C)(O1)[C@@H]1CC[C@@H](C)[C@H]1[C@@H]2OC(=O)/C=C/c1ccccc1
29.5

Specify reported LC50 for the molecule shown: CC(C)[C@@]12C[C@@H](NC(=O)CO)[C@@](C)(O1)[C@@H]1CC[C@@H](C)[C@H]1[C@@H]2OC(=O)c1ccc2ccccc2c1
29.5

Provide only the value of recorded LC50 for C/C(=C\C(=O)O[C@H]1[C@@H]2[C@H](C)CC[C@H]2[C@]2(C)O[C@@]1(C(C)C)C[C@H]2NC(=O)CO)c1ccccc1
23.4

---

System: U-251
assay_explanation: Growth inhibition of human U251 cells incubated for 48 hrs by sulforhodamine B assay
Format: functional
condition_summary: U-251, 48 h
Collected GI50 values appear next to each entry.
Report only the number, with the unit µM understood.

Tell me its GI50 given CC(C)[C@@]12C[C@@H](NC(=O)CO)[C@@](C)(O1)[C@@H]1CC[C@@H](C)[C@H]1[C@@H]2OC(=O)c1ccc2ccccc2c1 as the entry.
16.2

Fill in GI50 for record CC(C)[C@@]12C[C@@H](NC(=O)CO)[C@@](C)(O1)[C@@H]1CC[C@@H](C)[C@H]1[C@@H]2OC(=O)/C=C/c1ccccc1
15.5

Give a short answer stating reported GI50 for C/C(=C\C(=O)O[C@H]1[C@@H]2[C@H](C)CC[C@H]2[C@]2(C)O[C@@]1(C(C)C)C[C@H]2NC(=O)CO)c1ccccc1 .
43.7

---

# maps each entry to its growth at 10 µM
assay_explanation: Growth inhibition of human RPMI8226 cells assessed as cell growth at 10 uM incubated for 48 hrs by sulforhodamine B assay relative to control
Assay type: functional
condition_summary: RPMI-8226, 48 h, read-out: Activity
Kindly answer with a numeric value in %, unit omitted.

These recorded examples may help you get a feel for the data.
CC(C)[C@@]12C[C@@H](NC(=O)CO)[C@@](C)(O1)[C@@H]1CC[C@@H](C)[C@H]1[C@@H]2OC(=O)/C=C/c1ccccc1	90.6
CC(C)[C@@]12C[C@@H](NC(=O)CO)[C@@](C)(O1)[C@@H]1CC[C@@H](C)[C@H]1[C@@H]2OC(=O)/C=C/C1CCCCC1	134
CC(C)[C@@]12C[C@@H](NC(=O)CF)[C@@](C)(O1)[C@@H]1CC[C@@H](C)[C@H]1[C@@H]2OC(=O)/C=C/c1ccccc1	94.3

Turning now to a further record.
Specify reported growth at 10 µM for the molecule shown: CC(C)[C@@]12C[C@@H](NC(=O)CO)[C@@](C)(O1)[C@@H]1CC[C@@H](C)[C@H]1[C@@H]2OC(=O)c1ccc2ccccc2c1
67.6

---

assay_explanation: Plasma concentration in mouse at 20 mg/kg, po administered through gavage after 0.25 hrs by LC-MS/MS analysis
Type: ADME, organism-based
metric: concentration at 0.25 h (ng/mL)
API: value field is a number in ng/mL; no unit string.

Name the recorded concentration at 0.25 h of the item CC(C)[C@@]12C[C@@H](NC(=O)CO)[C@@](C)(O1)[C@@H]1CC[C@@H](C)[C@H]1[C@@H]2OC(=O)/C=C/c1ccccc1 in your answer.
40.7

---

# LC50 listing for each entry below
System: NCI-H23
assay_explanation: Growth inhibition of human NCI-H23 cells incubated for 48 hrs by sulforhodamine B assay
Type: functional
condition_summary: NCI-H23, 48 h

CC(C)[C@@]12C[C@@H](NC(=O)CO)[C@@](C)(O1)[C@@H]1CC[C@@H](C)[C@H]1[C@@H]2OC(=O)/C=C/C1CCCCC1	> 44.7 µM
C/C(=C\C(=O)O[C@H]1[C@@H]2[C@H](C)CC[C@H]2[C@]2(C)O[C@@]1(C(C)C)C[C@H]2NC(=O)CO)c1ccccc1	> 100 µM
CC(C)[C@@]12C[C@@H](NC(=O)CO)[C@@](C)(O1)[C@@H]1CC[C@@H](C)[C@H]1[C@@H]2OC(=O)c1ccc2ccccc2c1	57.5 µM

Turning now to a further record.
Report its LC50 with NCI-H23 as the test system: CC(C)[C@@]12C[C@@H](NC(=O)CO)[C@@](C)(O1)[C@@H]1CC[C@@H](C)[C@H]1[C@@H]2OC(=O)/C=C/c1ccccc1
> 50.1 µM

---

Quick list: growth at 10 µM per entry.
assay_explanation: Growth inhibition of human SF268 cells assessed as cell growth at 10 uM incubated for 48 hrs by sulforhodamine B assay relative to control
Type: functional
condition_summary: SF-268, 48 h, read-out: Activity
Please provide the amount together with its unit, number first.

Example results:
CC(C)[C@@]12C[C@@H](NC(=O)CO)[C@@](C)(O1)[C@@H]1CC[C@@H](C)[C@H]1[C@@H]2OC(=O)/C=C/c1ccccc1	84.4%
CC(C)[C@@]12C[C@@H](NC(=O)CO)[C@@](C)(O1)[C@@H]1CC[C@@H](C)[C@H]1[C@@H]2OC(=O)/C=C/C1CCCCC1	106%
CC(C)[C@@]12C[C@@H](NC(=O)CO)[C@@](C)(O1)[C@@H]1CC[C@@H](C)[C@H]1[C@@H]2OC(=O)c1ccc2ccccc2c1	79%
CC(C)[C@@]12C[C@@H](NC(=O)CF)[C@@](C)(O1)[C@@H]1CC[C@@H](C)[C@H]1[C@@H]2OC(=O)/C=C/c1ccccc1	97.7%

Write down growth at 10 µM measured for item C/C(=C\C(=O)O[C@H]1[C@@H]2[C@H](C)CC[C@H]2[C@]2(C)O[C@@]1(C(C)C)C[C@H]2NC(=O)CO)c1ccccc1
106%
